- Tested on: HT29 colon
- ASSAY: NCI-60 one-dose screen, 48 h
- EXPERIMENTAL CONTEXT: 10 µM unless noted
This is part of a sample that, as a whole, favours compounds with a hit. Of some 83,000 tested, about 20% had one in any assay. Active and inactive are the calls of the source. Rule for the calls: active = growth percent below 10; inactive = the rest.
Output constraint: value belongs to Y for active, N for inactive

Input line: Could you please tell me the result logged for Fc1ccc2c(c1)c(-c1nc(-c3c[nH]c4ncccc34)cs1)cn2CCCN1CCCCC1 in this assay?
Output line: Y

Input line: Could you please tell me the result logged for CC(=O)OCCCCCCn1c2ccccc2c2c3c(c4c5ccccc5n(C)c4c21)C(=O)N(O)C3=O in this assay?
Output line: N

Input line: Could you please tell me the result logged for O=C(NC1=CC(=O)c2ccccc2C1=O)c1ccccc1 in this assay?
Output line: N

Input line: Could you please tell me the result logged for CCCCCC1CCCCN1C(=O)OCC (stereo unspecified) in this assay?
Output line: N

Input line: Could you please tell me the result logged for C=C(C)[C@@H]1CC[C@]2(C(=O)OC)CC[C@]3(C)[C@H](CC[C@@H]4[C@@](C)(CC/C(N)=N/O)[C@H](C(=C)C)CC[C@]43C)[C@@H]12 in this assay?
Output line: N

Input line: Could you please tell me the result logged for N=c1ccc2nc3c(cc(N)c4ccccc43)oc-2c1 in this assay?
Output line: Y
